Please respond with reported IC50 for every item in the list.
- System: P-4E-BP1 (T37/46)
- measurement notes: Cell based AlphaLISA assay, inhibition of P-4E-BP1 (T37/46) in MDA-MB-468 cells (mTORC1 substrate)
- condition info: Homo sapiens, 4 h, AlphaLisa, two to four hours at 37° C., read-out: pIC50 for Inhibition of mTORC1 and mTORC2 Substrate Phosphorylation P-4E-BP1-(T37/46) (converted)

Some compounds with known IC50 results, for comparison:
CO[C@H]1C[C@@H]2CC[C@@H](C)[C@@](O)(O2)C(=O)C(=O)N2CCCC[C@H]2C(=O)O[C@H]([C@H](C)C[C@@H]2CC[C@@H](OC(=O)N3CCC(N)(C(=O)NCCOCCOCCOCCOCCOCCOCCC(=O)N4CCc5cc(Cn6nc(-c7ccc8oc(N)nc8c7)c7c(N)ncnc76)ccc5C4)CC3)[C@H](OC)C2)C[C@@H](O)[C@H](C)/C=C(\C)[C@@H](O)[C@@H](OC)C(=O)[C@H](C)C[C@H](C)/C=C/C=C/C=C/1C	< 3.16 nM
CO[C@H]1C[C@@H]2CC[C@@H](C)[C@@](O)(O2)C(=O)C(=O)N2CCCC[C@H]2C(=O)O[C@H]([C@H](C)C[C@@H]2CC[C@@H](OC(=O)NCc3cnc(N4CCN(CCOCCOCCOCCOCCC(=O)N5CCc6cc(Cn7nc(-c8ccc9oc(N)nc9c8)c8c(N)ncnc87)ccc6C5)CC4)nc3)[C@H](OC)C2)CC(=O)[C@H](C)/C=C(\C)[C@@H](O)[C@@H](OC)C(=O)[C@H](C)C[C@H](C)/C=C/C=C/C=C/1C	< 3.16 nM

Proceed to the following item.
Note to self: IC50 recorded for CO[C@H]1C[C@@H]2CC[C@@H](C)[C@@](O)(O2)C(=O)C(=O)N2CCCC[C@H]2C(=O)O[C@H]([C@H](C)C[C@@H]2CC[C@@H](OC(=O)NCc3cnc(N4CCN(CCOCCOCCOCCOCCC(=O)N5CCc6cc(Cn7nc(-c8ccc9oc(N)nc9c8)c8c(N)ncnc87)ccc6C5)CC4)nc3)[C@H](OC)C2)C[C@@H](OC)[C@H](C)/C=C(\C)[C@@H](O)[C@@H](OC)C(=O)[C@H](C)C[C@H](C)/C=C/C=C/C=C/1C was < 3.16 nM

---

Please respond with reported IC50 for every item in the list.
- Test system: P-Akt (S473)
- measurement notes: Cell based AlphaLISA assay, inhibition of P-Akt (S473) in MDA-MB-468 cells (mTORC2 substrate)
- condition info: Homo sapiens, 4 h, AlphaLisa, two to four hours at 37° C., read-out: pIC50 for Inhibition of mTORC1 and mTORC2 Substrate Phosphorylation p-AKT1/2/3-(S473) (converted)

Working through the 2 molecules below one at a time, give IC50 for each.
1. CO[C@H]1C[C@@H]2CC[C@@H](C)[C@@](O)(O2)C(=O)C(=O)N2CCCC[C@H]2C(=O)O[C@H]([C@H](C)C[C@@H]2CC[C@@H](OC(=O)NCc3cnc(N4CCN(C(=O)CCOCCN5CCN(c6ncc(C(=O)NCCS(=O)(=O)c7ccc(C(=O)N8CCOc9ccc(-c%10ccc(N)nc%10)cc9C8)c(C)c7F)cn6)CC5)CC4)nc3)[C@H](OC)C2)C[C@@H](OC)[C@H](C)/C=C(\C)[C@@H](O)[C@@H](OC)C(=O)[C@H](C)C[C@H](C)/C=C/C=C/C=C/1C
2. CO[C@H]1C[C@@H]2CC[C@@H](C)[C@@](O)(O2)C(=O)C(=O)N2CCCC[C@H]2C(=O)O[C@H]([C@H](C)C[C@@H]2CC[C@@H](OC(=O)N3CCc4nc(N5CCN(C(=O)CCOCCN6CCN(c7ncc(C(=O)N8CCc9cc(Cn%10nc(-c%11ccc%12[nH]ccc%12c%11)c%11c(N)ncnc%11%10)ccc9C8)cn7)CC6)CC5)ncc4C3)[C@H](OC)C2)CC(=O)[C@H](C)/C=C(\C)[C@@H](O)[C@@H](OC)C(=O)[C@H](C)C[C@H](C)/C=C/C=C/C=C/1C

// result
["31.6 to 1000 nM", "> 1000 nM"]

---

- Test system: P-Akt (S473)
- measurement notes: Cell based AlphaLISA assay, inhibition of P-Akt (S473) in MDA-MB-468 cells (mTORC2 substrate)
- condition info: Homo sapiens, 4 h, AlphaLisa, two to four hours at 37° C., read-out: pIC50 for Inhibition of mTORC1 and mTORC2 Substrate Phosphorylation p-AKT1/2/3-(S473) (converted)
Please respond with reported IC50 for every item in the list.

CO[C@H]1C[C@@H]2CC[C@@H](C)[C@@](O)(O2)C(=O)C(=O)N2CCCC[C@H]2C(=O)O[C@H]([C@H](C)C[C@@H]2CC[C@@H](OC(=O)NCc3cnc(N4CCN(C(=O)CCOCCN5CCN(C(=O)CCC(=O)N6CCc7cc(Cn8nc(-c9ccc%10oc(N)nc%10c9)c9c(N)ncnc98)ccc7C6)CC5)CC4)nc3)[C@H](OC)C2)C[C@@H](O)[C@H](C)/C=C(\C)[C@@H](O)[C@@H](OC)C(=O)[C@H](C)C[C@H](C)/C=C/C=C/C=C/1C	3.16 to 31.6 nM
CO[C@H]1C[C@@H]2CC[C@@H](C)[C@@](O)(O2)C(=O)C(=O)N2CCCC[C@H]2C(=O)O[C@H]([C@H](C)C[C@@H]2CC[C@@H](OC(=O)NCc3cnc(N4CCN(CCOCCN5CCN(c6ncc(C(=O)N7CCc8cc(Cn9nc(-c%10ccc%11[nH]ccc%11c%10)c%10c(N)ncnc%109)ccc8C7)cn6)CC5)CC4)nc3)[C@H](OC)C2)CC(=O)[C@H](C)/C=C(\C)[C@@H](O)[C@@H](OC)C(=O)[C@H](C)C[C@H](C)/C=C/C=C/C=C/1C	> 1000 nM

Proceed to the following item.
Record CO[C@H]1C[C@@H]2CC[C@@H](C)[C@@](O)(O2)C(=O)C(=O)N2CCCC[C@H]2C(=O)O[C@H]([C@H](C)C[C@@H]2CC[C@@H](OC(=O)NCc3cnc(N4CCN(C(=O)CCOCCN5CCN(c6ncc(C(=O)N7CCc8cc(Cn9nc(-c%10cnc%11[nH]ccc%11c%10)c%10c(N)ncnc%109)ccc8C7)cn6)CC5)[C@@H](C(=O)O)C4)nc3)[C@H](OC)C2)CC(=O)[C@H](C)/C=C(\C)[C@@H](O)[C@@H](OC)C(=O)[C@H](C)C[C@H](C)/C=C/C=C/C=C/1C ; system P-Akt (S473); IC50 = > 1000 nM

---

Please respond with reported IC50 for every item in the list.
- Tested on: P-4E-BP1 (T37/46)
- measurement notes: Cell based AlphaLISA assay, inhibition of P-4E-BP1 (T37/46) in MDA-MB-468 cells (mTORC1 substrate)
- condition info: Homo sapiens, 4 h, AlphaLisa, two to four hours at 37° C., read-out: pIC50 for Inhibition of mTORC1 and mTORC2 Substrate Phosphorylation P-4E-BP1-(T37/46) (converted)

CO[C@H]1C[C@@H]2CC[C@@H](C)[C@@](O)(O2)C(=O)C(=O)N2CCCC[C@H]2C(=O)O[C@H]([C@H](C)C[C@@H]2CC[C@@H](OC(=O)NCc3cnc(N4CCN(C(=O)CCOCCN5CCN(c6ncc(C(=O)N7CCc8cc(Cn9nc(-c%10ccc%11oc(N)nc%11c%10)c%10c(N)ncnc%109)ccc8C7)cn6)CC5)CC4)nc3)[C@H](OC)C2)C[C@@H](O)[C@H](C)/C=C(\C)[C@@H](O)[C@@H](OC)C(=O)[C@H](C)C[C@H](C)/C=C/C=C/C=C/1C [Example 113]	< 3.16 nM

Proceed to the following item.
Note to self: IC50 recorded for CO[C@H]1C[C@@H]2CC[C@@H](C)[C@@](O)(O2)C(=O)C(=O)N2CCCC[C@H]2C(=O)O[C@H]([C@H](C)C[C@@H]2CC[C@@H](OC(=O)NC3CCN(CC(=O)NCCOCCOCCOCCOCCOCCOCCC(=O)N4CCc5cc(Cn6nc(-c7ccc8oc(N)nc8c7)c7c(N)ncnc76)ccc5C4)CC3)[C@H](OC)C2)C[C@@H](O)[C@H](C)/C=C(\C)[C@@H](O)[C@@H](OC)C(=O)[C@H](C)C[C@H](C)/C=C/C=C/C=C/1C [Example 98] was < 3.16 nM

---

Please respond with reported IC50 for every item in the list.
- System: P-4E-BP1 (T37/46)
- measurement notes: Cell based AlphaLISA assay, inhibition of P-4E-BP1 (T37/46) in MDA-MB-468 cells (mTORC1 substrate)
- condition info: Homo sapiens, 4 h, AlphaLisa, two to four hours at 37° C., read-out: pIC50 for Inhibition of mTORC1 and mTORC2 Substrate Phosphorylation P-4E-BP1-(T37/46) (converted)

CO[C@H]1C[C@@H]2CC[C@@H](C)[C@@](O)(O2)C(=O)C(=O)N2CCCC[C@H]2C(=O)O[C@H]([C@H](C)C[C@@H]2CC[C@@H](OC(=O)NCc3cnc(N4CCN(c5ncc(C(=O)NCCOCCOCCOCCOCCC(=O)N6CCc7cc(Cn8nc(-c9cnc%10[nH]ccc%10c9)c9c(N)ncnc98)ccc7C6)c(N)n5)CC4)nc3)[C@H](OC)C2)CC(=O)[C@H](C)/C=C(\C)[C@@H](O)[C@@H](OC)C(=O)[C@H](C)C[C@H](C)/C=C/C=C/C=C/1C	< 3.16 nM

Proceed to the following item.
Note to self: IC50 recorded for CO[C@H]1C[C@@H]2CC[C@@H](C)[C@@](O)(O2)C(=O)C(=O)N2CCCC[C@H]2C(=O)O[C@H]([C@H](C)C[C@@H]2CC[C@@H](OC(=O)NCCOCCOCCN3CCN(CCOCCOCCOCCOCCC(=O)N4CCc5cc(Cn6nc(-c7ccc8oc(N)nc8c7)c7c(N)ncnc76)ccc5C4)CC3)[C@H](OC)C2)C[C@@H](O)[C@H](C)/C=C(\C)[C@@H](O)[C@@H](OC)C(=O)[C@H](C)C[C@H](C)/C=C/C=C/C=C/1C was 3.16 to 31.6 nM

The measured values listed here are drawn from patent US10980889B1.
